Measured values drawn from ChEMBL document CHEMBL4308875 for this set.

Please provide measured MIC for the entries that follow.
Test system: Klebsiella pneumoniae
run-description: Antibacterial activity against Klebsiella pneumoniae ATCC 700603 after 15 days by turbidometric method
Type: functional
setup-conditions: Klebsiella pneumoniae, 700603, 360 h

Documented MIC of "CC(C)c1ccc(-c2nc(CN3CCN(c4ccnc5cc(Cl)ccc45)CC3)no2)cc1" : > 32 µg/mL

Documented MIC of "CC(C)c1ccc(-c2nc(CN3CCN(c4ccnc5cc(-c6cccnc6)ccc45)CC3)no2)cc1" : > 32 µg/mL

Documented MIC of "c1cncc(-c2ccc3c(N4CCN(Cc5noc(C6CCCC6)n5)CC4)ccnc3c2)c1" : 256 µg/mL

Documented MIC of "Cc1cccc(-c2nc(CN3CCN(c4ccnc5cc(-c6cccnc6)ccc45)CC3)no2)c1C" : > 32 µg/mL

Documented MIC of "CN[C@H](CC(C)C)C(=O)N[C@H]1C(=O)N[C@@H](CC(N)=O)C(=O)N[C@H]2C(=O)N[C@H]3C(=O)N[C@H](C(=O)N[C@H](C(=O)O)c4cc(O)cc(O)c4-c4cc3ccc4O)[C@H](O)c3ccc(c(Cl)c3)Oc3cc2cc(c3O[C@@H]2O[C@H](CO)[C@@H](O)[C@H](O)[C@H]2O[C@H]2C[C@](C)(N)[C@H](O)[C@H](C)O2)Oc2ccc(cc2Cl)[C@H]1O" : 512 µg/mL

Documented MIC of "O=C(O)c1cn(C2CC2)c2cc(N3CCNCC3)c(F)cc2c1=O" : < 1 µg/mL

====

Tested on: Pseudomonas aeruginosa
run-description: Antibacterial activity against Pseudomonas aeruginosa ATCC 15442 after 15 days by turbidometric method
Format: functional
setup-conditions: ATCC 15442, 360 h
readout-kind: MIC

Documented MIC of O=C(O)c1cn(C2CC2)c2cc(N3CCNCC3)c(F)cc2c1=O [CIPROFLOXACIN] : < 1 µg/mL

Documented MIC of CN[C@H](CC(C)C)C(=O)N[C@H]1C(=O)N[C@@H](CC(N)=O)C(=O)N[C@H]2C(=O)N[C@H]3C(=O)N[C@H](C(=O)N[C@H](C(=O)O)c4cc(O)cc(O)c4-c4cc3ccc4O)[C@H](O)c3ccc(c(Cl)c3)Oc3cc2cc(c3O[C@@H]2O[C@H](CO)[C@@H](O)[C@H](O)[C@H]2O[C@H]2C[C@](C)(N)[C@H](O)[C@H](C)O2)Oc2ccc(cc2Cl)[C@H]1O [VANCOMYCIN] : 512 µg/mL

Documented MIC of "Cc1cccc(-c2nc(CN3CCN(c4ccnc5cc(-c6cccnc6)ccc45)CC3)no2)c1C" : > 32 µg/mL

Documented MIC of "CC(C)c1ccc(-c2nc(CN3CCN(c4ccnc5cc(Cl)ccc45)CC3)no2)cc1" : > 32 µg/mL

Documented MIC of "CC(C)c1ccc(-c2nc(CN3CCN(c4ccnc5cc(-c6cccnc6)ccc45)CC3)no2)cc1" : > 32 µg/mL

Documented MIC of "c1cncc(-c2ccc3c(N4CCN(Cc5noc(C6CCCC6)n5)CC4)ccnc3c2)c1" : 512 µg/mL

====

run-description: Metabolic stability in human liver microsomes assessed as compound remaining at 1 uM after 120 mins by LC-MS/MS analysis (reference value: 100%)
readout-kind: remaining at 2 h, 1 µM (%)
Return type: number; implicit unit %.

Documented remaining at 2 h, 1 µM of "Cc1cccc(-c2nc(CN3CCN(c4ccnc5cc(-c6cccnc6)ccc45)CC3)no2)c1C" : 78

Documented remaining at 2 h, 1 µM of "c1cncc(-c2ccc3c(N4CCN(Cc5noc(C6CCCC6)n5)CC4)ccnc3c2)c1" : 97.8

Documented remaining at 2 h, 1 µM of "CC(C)c1ccc(-c2nc(CN3CCN(c4ccnc5cc(-c6cccnc6)ccc45)CC3)no2)cc1" : 76.5

Documented remaining at 2 h, 1 µM of "CC(C)c1ccc(-c2nc(CN3CCN(c4ccnc5cc(Cl)ccc45)CC3)no2)cc1" : 89.2
